Ref: the supplement of paper PMC7877785

experiment: self-splicing fitness, log relative to wild type (ln ratio); higher = more splicing; Tetrahymena group I intron in knt gene, E. coli kanamycin selection, DiMSum; sequences stand for … in CUCUCU…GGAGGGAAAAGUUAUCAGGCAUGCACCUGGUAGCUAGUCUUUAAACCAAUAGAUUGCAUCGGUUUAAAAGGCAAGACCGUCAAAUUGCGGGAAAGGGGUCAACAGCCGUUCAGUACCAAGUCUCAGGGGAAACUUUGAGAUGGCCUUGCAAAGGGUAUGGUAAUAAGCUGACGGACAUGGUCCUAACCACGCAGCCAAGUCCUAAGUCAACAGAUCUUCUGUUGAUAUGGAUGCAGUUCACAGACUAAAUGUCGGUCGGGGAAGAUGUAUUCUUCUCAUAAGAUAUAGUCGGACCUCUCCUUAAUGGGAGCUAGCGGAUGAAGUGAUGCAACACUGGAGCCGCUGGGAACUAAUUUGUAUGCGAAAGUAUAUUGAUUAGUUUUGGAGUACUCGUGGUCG; settings: 30 °C;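 note: selection with 25 µg/mL kanamycin versus none on LB agar overnight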

sequence-text	self-splicing fitness (ln)
CCAAAGCAAUAUUACGCCUC	-3.33
UGCUAGCAAUAUUACGUUAG	-3.08
GUCAAGCAAUAUUACGCAAG	-3.29
GUCAAGCAAUAUUACGAUGC	-1.3
CACCAGCAAUAUUACGUGCG	-0.627
CACUAGCAAUAUUACGGCAU	-4.16
AACCAGCAAUAUUACGCUUG	-1.94
GUUAAGCAAUAUUACGGUGA	-1.86
AUUUAGCAAUAUUACGCUGG	-1.97
AAAUAGCAAUAUUACGAGCU	-1.37
UCCCAGCAAUAUUACGCGAU	-3.29
CAGAAGCAAUAUUACGAGUG	-1.63
AUUCAGCAAUAUUACGUGCC	-1.51
AUCCAGCAAUAUUACGGCAC	-0.153
CUACAGCAAUAUUACGUCAU	-4.33
GCUAAGCAAUAUUACGGACA	-1.35
CGCCAGCAAUAUUACGAGAA	-2.14
UGUCAGCAAUAUUACGGACC	-0.173
GAGUAGCAAUAUUACGAUCC	-1.55
AGGAAGCAAUAUUACGGCGU	-0.156
GUCCAGCAAUAUUACGAGUU	-1.98
AGCAAGCAAUAUUACGCUGA	-2.22
AUAAAGCAAUAUUACGAACA	0.281
CCACAGCAAUAUUACGUGUC	-3.11
CUGGAGCAAUAUUACGGAUA	-3.57
CCGUAGCAAUAUUACGGUAA	-3.17
CAGCAGCAAUAUUACGAAAG	-0.597
ACGCAGCAAUAUUACGGUCA	-1.15
CCGCAGCAAUAUUACGUCAA	-4.05
ACCGAGCAAUAUUACGGACC	-1.29
AGACAGCAAUAUUACGGUCG	-1.02
CAACAGCAAUAUUACGAGUU	-2.6
CCACAGCAAUAUUACGAGGA	-3.8
UGGUAGCAAUAUUACGCGUG	-0.581

====

assay: self-splicing fitness, log relative to wild type (ln ratio); higher = more splicing; Tetrahymena group I intron in knt gene, E. coli kanamycin selection, DiMSum; sequences stand for … in CUCUCU…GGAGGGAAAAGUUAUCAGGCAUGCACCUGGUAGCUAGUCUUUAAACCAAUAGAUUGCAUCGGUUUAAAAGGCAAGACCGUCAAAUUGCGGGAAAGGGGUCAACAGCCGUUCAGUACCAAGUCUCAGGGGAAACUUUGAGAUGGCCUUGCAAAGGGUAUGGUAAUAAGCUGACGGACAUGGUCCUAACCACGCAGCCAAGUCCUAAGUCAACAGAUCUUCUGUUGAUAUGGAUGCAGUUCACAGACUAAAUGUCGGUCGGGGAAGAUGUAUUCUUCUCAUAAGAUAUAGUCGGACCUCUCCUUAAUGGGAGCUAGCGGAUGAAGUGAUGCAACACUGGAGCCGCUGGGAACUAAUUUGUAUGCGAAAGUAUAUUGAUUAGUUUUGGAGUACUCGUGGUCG; conditions: 37 °C
Use Satisfied when the recorded self-splicing fitness (ln) is no lower than -2; use Not satisfied when it is lower.

sequence-text	classification
CCAAAGCAAUAUUACGACUU	Not satisfied
GCUAAGCAAUAUUACGCGAC	Satisfied
GAACAGCAAUAUUACGUAUC	Satisfied
GUCCAGCAAUAUUACGUGCG	Satisfied
CAGCAGCAAUAUUACGGGGU	Not satisfied
AUGGAGCAAUAUUACGUAGC	Satisfied
AAUUAGCAAUAUUACGAGGU	Not satisfied
GAACAGCAAUAUUACGGCCA	Satisfied
UCUUAGCAAUAUUACGAUAU	Satisfied
ACUUAGCAAUAUUACGAUGA	Satisfied
CUGCAGCAAUAUUACGUACG	Satisfied
AUAUAGCAAUAUUACGAGAG	Not satisfied
CUCCAGCAAUAUUACGGAUU	Not satisfied
GGGGAGCAAUAUUACGUUAG	Satisfied
CAGCAGCAAUAUUACGUUUC	Not satisfied
UCCAAGCAAUAUUACGUUGG	Satisfied
AUCUAGCAAUAUUACGUCUC	Satisfied
UUGUAGCAAUAUUACGCGGG	Not satisfied
CUGAAGCAAUAUUACGGUGA	Not satisfied
CCGGAGCAAUAUUACGAAUG	Satisfied
CCCGAGCAAUAUUACGAACU	Satisfied
GGUAAGCAAUAUUACGGAUU	Satisfied
UCGUAGCAAUAUUACGGUGG	Satisfied
UCUCAGCAAUAUUACGGAUG	Satisfied
UGGCAGCAAUAUUACGAGCU	Satisfied
GCGAAGCAAUAUUACGCAGG	Not satisfied
GAUAAGCAAUAUUACGCCUU	Satisfied
GAUCAGCAAUAUUACGCGUC	Not satisfied
ACGCAGCAAUAUUACGAAGU	Satisfied
AUAGAGCAAUAUUACGAAAU	Satisfied
AGCCAGCAAUAUUACGGGCU	Not satisfied

====

assay: self-splicing fitness, log relative to wild type (ln ratio); higher = more splicing; Tetrahymena group I intron in knt gene, E. coli kanamycin selection, DiMSum; sequences stand for … in CUCUCU…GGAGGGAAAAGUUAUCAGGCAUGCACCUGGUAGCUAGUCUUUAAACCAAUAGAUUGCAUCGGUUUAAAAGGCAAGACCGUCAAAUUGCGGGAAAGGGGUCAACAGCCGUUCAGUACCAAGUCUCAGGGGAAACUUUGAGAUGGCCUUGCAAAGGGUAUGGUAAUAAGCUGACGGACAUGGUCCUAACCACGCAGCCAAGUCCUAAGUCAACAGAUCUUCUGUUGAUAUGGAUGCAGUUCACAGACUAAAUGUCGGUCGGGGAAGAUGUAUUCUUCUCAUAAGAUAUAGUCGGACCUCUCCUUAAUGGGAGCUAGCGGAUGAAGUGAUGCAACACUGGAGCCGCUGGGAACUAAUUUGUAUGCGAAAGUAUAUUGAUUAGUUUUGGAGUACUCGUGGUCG; settings: 37 °C
Measured self-splicing fitness (ln) of individual entries

sequence-text	self-splicing fitness (ln)
AUGAAGCAAUAUUACGCCUU	-1.01
UGGCAGCAAUAUUACGAAUG	0.188
UACUAGCAAUAUUACGGAGC	-2.56
AAGUAGCAAUAUUACGGGAC	-2.83
CCUCAGCAAUAUUACGCACG	-1.06
CAGCAGCAAUAUUACGUAUC	-2.13
AACUAGCAAUAUUACGAUAA	-0.94
AACCAGCAAUAUUACGUCAU	-1.14
AGCUAGCAAUAUUACGCCAC	-2.45
GGGGAGCAAUAUUACGAUGU	-1.55
CAUCAGCAAUAUUACGCCGU	-1.13
GAACAGCAAUAUUACGCUCC	-2.34
GCAGAGCAAUAUUACGCGUA	-2.22
UUUGAGCAAUAUUACGUCGG	-1.28
GGCUAGCAAUAUUACGCGUA	0.00477
ACUUAGCAAUAUUACGACUU	-0.156
CCAGAGCAAUAUUACGAAUG	-0.868
GUCAAGCAAUAUUACGAUGA	-1.1
AAGCAGCAAUAUUACGUUAA	-2.14
CAAUAGCAAUAUUACGCGUU	-2.42
GGCGAGCAAUAUUACGAUAU	-0.859
UAGAAGCAAUAUUACGCCAG	-0.617
CAUGAGCAAUAUUACGUUCG	-0.161
ACCAAGCAAUAUUACGUCGC	-1.27
CCACAGCAAUAUUACGAGGA	-1.32
UGUCAGCAAUAUUACGAUUG	0.249
GCCAAGCAAUAUUACGUGGC	-3.04
AUUAAGCAAUAUUACGUGGA	-1.05
CCCCAGCAAUAUUACGAAAU	-2.25
AGUGAGCAAUAUUACGAAGG	-1.41
UAGCAGCAAUAUUACGGGAC	-2.75
CGUGAGCAAUAUUACGUUUC	-2.23
CUGAAGCAAUAUUACGCCAU	-2.52
GGCCAGCAAUAUUACGGCUU	-2.68
GAAGAGCAAUAUUACGAAGG	-3.62
CGUUAGCAAUAUUACGAUAC	-2.64
CCGUAGCAAUAUUACGAAAU	-2.7
AGUUAGCAAUAUUACGUCGU	-1.05
CUAGAGCAAUAUUACGCCUU	-0.994
UUACAGCAAUAUUACGCACC	-0.981
AGCUAGCAAUAUUACGGAAC	-2.38
AGGAAGCAAUAUUACGCGUU	-1.01
AUCGAGCAAUAUUACGCUUC	-3.02
CCCUAGCAAUAUUACGCUGU	-2.63
UAUUAGCAAUAUUACGGUGG	-1.22
AUGAAGCAAUAUUACGAUAU	0.229
UGAAAGCAAUAUUACGUACU	-0.476
ACUGAGCAAUAUUACGUCAG	-2.21
UGUUAGCAAUAUUACGAUAA	-0.345
CAACAGCAAUAUUACGUUCC	-2.02
ACGAAGCAAUAUUACGACUC	-0.0297
UUGUAGCAAUAUUACGUACA	-0.822
GAUAAGCAAUAUUACGCCUA	-0.316
GCGUAGCAAUAUUACGCAUA	-2.17
GGCGAGCAAUAUUACGCCGA	-1.45
CCUGAGCAAUAUUACGAUCC	-2.96
AGGUAGCAAUAUUACGCGGU	-2.14
GUGAAGCAAUAUUACGUGUU	-1.23
CCGGAGCAAUAUUACGGCGG	-2.15
CAACAGCAAUAUUACGAGAC	-2.22
CCGCAGCAAUAUUACGUAGC	-0.697
GUGGAGCAAUAUUACGCGUC	-1.76
GCCGAGCAAUAUUACGUUGG	-2.18
GGGAAGCAAUAUUACGGGUG	-2.12
CUCUAGCAAUAUUACGGGUU	-3.31
CGUAAGCAAUAUUACGCAGC	-2.3
CUCGAGCAAUAUUACGCAAA	-3.66
